B1: glmS ribozyme (parent)
chain: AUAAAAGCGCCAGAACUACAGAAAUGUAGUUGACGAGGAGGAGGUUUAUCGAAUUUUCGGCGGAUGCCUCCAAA

Variants of: B1
Experiment: kcat; higher = faster cleavage; RNA array
Applied Conditions: with glucosamine-6-phosphate
Variants at the floor of the assay were thinned out.
Value Kind: kcat

- AUAAAAGCGCCAGAACUACAGAAAUGUAGUUGACGAGGAGGAGGUUUAUCGAAUGUUCGGCGGAUGCGUCCAAA [U55G C68G]: 9.78e-05 s⁻¹
- AUAAAAGCGCCAGAAUUACAGAAAUGUAGAUGACGAGGAGGAGGUUUAUCGAAUUUUCGGCGGAUGCCUCCAAA [C16U U30A]: 0.003 s⁻¹
- AUAAAAGCGCCAGAACUACAGAAAUGUAGUUGACGAGGAGUAGGUUUAUCGAAUUUUCGGCGGAUACCUCCAAA [G41U G66A]: 0.00293 s⁻¹

Reference for the values: the supplement of paper PMC7125110
